- Tested on: Escherichia coli TOP10
- procedure.text: shrunken log2 fold change of peptide-encoding DNA abundance (4.5 h post-induction vs induction); higher = less antimicrobial activity (less host growth inhibition)
- test.parameters: time post-induction: 4.5 h; library: site-saturation at positions 5, 18, 19, 20
Note to self: class labels come from recorded shrunken log2 fold change, ranges listed here: range A: < -0.06; range B: ≥ -0.06 and < 0.07; range C: ≥ 0.07

Prompt: Dear colleague, I would appreciate it if you could identify the bin for RRIRWRPPRLPRPRPRPIFFPRP and reply at your convenience.
Completion: range C

Prompt: Dear colleague, I would appreciate it if you could identify the bin for RRIRVRPPRLPRPRPRPLGMPRP and reply at your convenience.
Completion: range A

Prompt: Dear colleague, I would appreciate it if you could identify the bin for RRIRDRPPRLPRPRPRPYTEPRP and reply at your convenience.
Completion: range B

Prompt: Dear colleague, I would appreciate it if you could identify the bin for RRIRCRPPRLPRPRPRPDRSPRP and reply at your convenience.
Completion: range C

Prompt: Dear colleague, I would appreciate it if you could identify the bin for RRIRGRPPRLPRPRPRPDTCPRP and reply at your convenience.
Completion: range C

---

- Test system: Escherichia coli TOP10
- procedure.text: shrunken log2 fold change of peptide-encoding DNA abundance (4.5 h post-induction vs induction); higher = less antimicrobial activity (less host growth inhibition)
- test.parameters: time post-induction: 4.5 h; library: site-saturation at positions 5, 18, 19, 20
measure: shrunken log2 fold change
Reply with the value as a number alone.

Example entries and their recorded answers appear below.
RRIRIRPPRLPRPRPRPTQGPRP	-0.104
RRIRIRPPRLPRPRPRPYWVPRP	0.0603
RRIRCRPPRLPRPRPRPSDQPRP	-0.0132
RRIRIRPPRLPRPRPRPWFNPRP	-1.25

Then this sequence:
Prompt: Param item = RRIRMRPPRLPRPRPRPWDNPRP ; retrieve measured shrunken log2 fold change.
Completion: 0.013

---

- Tested on: Escherichia coli TOP10
- procedure.text: shrunken log2 fold change of peptide-encoding DNA abundance (4.5 h post-induction vs induction); higher = less antimicrobial activity (less host growth inhibition)
- test.parameters: time post-induction: 4.5 h; library: site-saturation at positions 5, 18, 19, 20
Below: a set of entries, each annotated with reported shrunken log2 fold change.
Reply with the value as a number alone.

Example entries and their recorded answers appear below.
RRIRNRPPRLPRPRPRPVLCPRP	0.0343
RRIRVRPPRLPRPRPRPYYLPRP	-0.286
RRIRVRPPRLPRPRPRPIVNPRP	-0.11

Then this sequence:
Prompt: Param item = RRIRARPPRLPRPRPRPCALPRP ; retrieve measured shrunken log2 fold change.
Completion: 0.00197

---

- Test system: Escherichia coli TOP10;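 note: peptides expressed intracellularly from a pBAD plasmid library in pooled LB shake-flask culture, induced with 0.3% L-arabinose, DNA abundance read by NGS, three biological replicates, DESeq2 with apeglm shrinkage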
- procedure.text: shrunken log2 fold change of peptide-encoding DNA abundance (4.5 h post-induction vs induction); higher = less antimicrobial activity (less host growth inhibition)
- test.parameters: time post-induction: 4.5 h; library: site-saturation at positions 5, 18, 19, 20
Mark Not met for shrunken log2 fold change values under -0.1, and Met for everything at or above.

RRIRLRPPRLPRPRPRPYRPPRP	Not met

Prompt: Answer whether shrunken log2 fold change of RRIRCRPPRLPRPRPRPLFHPRP is greater than or equal to -0.1.
Completion: Not met

Prompt: Answer whether shrunken log2 fold change of RRIRLRPPRLPRPRPRPDMIPRP is greater than or equal to -0.1.
Completion: Met

Prompt: Answer whether shrunken log2 fold change of RRIRNRPPRLPRPRPRPVEPPRP is greater than or equal to -0.1.
Completion: Met

Prompt: Answer whether shrunken log2 fold change of RRIRQRPPRLPRPRPRPDIKPRP is greater than or equal to -0.1.
Completion: Met
